Ref: PubChem BioAssay AID602300

- Target: Diacylglycerol lipase-beta (Mus musculus)
- Assay Name: mouse DAGLb inhibitors by competitive ABPP, late-stage follow-up, biochemical, gel-based fluorescence, overexpressed mouse, set 3 (AID 602300)
- Reported Conditions: HEK293T membrane mDAGLb, at 1 µM
Calls of active or inactive are those of the source.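 How the source made its calls: active means inhibition of at least 50%; inactive means inhibition below 50%.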
Labels: active, inactive

# Molecule, Class Assignment
rows = [
    ("O=C(O)c1cccc(-c2ccc(-c3cn(C(=O)N4CCCCC4Cc4ccccc4)nn3)cc2)c1 (stereo not drawn)", "active"),
    ("O=C(N1CCCCC1c1ccccc1)n1cc(-c2ccc(-c3cccc(CO)c3)cc2)nn1 (stereo not drawn)", "inactive"),
    ("O=C(O)c1ccc(-c2ccc(-c3cn(C(=O)N4CCCCC4CCc4ccccc4)nn3)cc2)cc1 (stereo not drawn)", "inactive"),
]
